TARGET_OF_ASSAY: full length human TREX1 (Homo sapiens (Human))
TEST: TREX1 Biochemical Assay (fluorescence assay measuring degradation of dsDNA substrate)
TEST_CONDITIONS: 150 pM TREX1, 60 nM dsDNA substrate, 25 minutes at room temperature
pIC50: −log10 of the molar value.
ENDPOINT: pIC50

COMPOUND: Cn1c(N2CCCC[C@H]2CCO)nc(C(=O)Nc2cnoc2)c(O)c1=O
TARGET_OF_ASSAY: full length human TREX1 (Homo sapiens (Human))
pIC50: 6.00 to 7.00

Provide full length human TREX1 (Homo sapiens (Human)) pIC50 reading for `Cn1c(N2CC[C@H](c3ccccc3)C2)nc(C(=O)Nc2cnoc2)c(O)c1=O` . > 7.00

State, for full length human TREX1 (Homo sapiens (Human)), measured pIC50 of the compound listed here: `Cc1cc(-c2ccn(C)n2)cc(-c2nc(C(=O)Nc3cnoc3)c(O)c(=O)n2C)c1` 6.00 to 7.00

Fill in pIC50 for COc1cccc(C(=O)N2CCCC(c3nc(C(=O)Nc4cnoc4)c(O)c(=O)n3C)C2)c1 (stereo not shown) tested with full length human TREX1 (Homo sapiens (Human)). 6.00 to 7.00

Send back full length human TREX1 (Homo sapiens (Human)) pIC50 of Cn1c(C2CCCN(CC(F)(F)F)C2)nc(C(=O)Nc2cnoc2)c(O)c1=O (stereo not shown) only. 6.00 to 7.00

Look up and report measured pIC50 (full length human TREX1 (Homo sapiens (Human))) for the following compound: `Cc1cc(C(=O)NCCO)cc(-c2nc(C(=O)Nc3cnoc3)c(O)c(=O)n2C)c1` 6.00 to 7.00

Please respond with reported pIC50 (system full length human TREX1 (Homo sapiens (Human))) for `Cn1c(C2CC2)nc(C(=O)Nc2cnoc2)c(O)c1=O` . 6.00 to 7.00

Under full length human TREX1 (Homo sapiens (Human)), report pIC50 for `Cn1c(N2CC[C@H](C(N)=O)C2)nc(C(=O)Nc2cnoc2)c(O)c1=O` 6.00 to 7.00

// fetch pIC50 for Cn1c(C2(C)CCCN(C(=O)c3ccc(Cl)c(Cl)c3)C2)nc(C(=O)Nc2cnoc2)c(O)c1=O (stereo not shown) ; system: full length human TREX1 (Homo sapiens (Human)) 6.00 to 7.00

Consider the compound `Cn1c(N2CCC[C@H]2c2ccncc2)nc(C(=O)Nc2cnoc2)c(O)c1=O` tested on full length human TREX1 (Homo sapiens (Human)); state its pIC50. 6.00 to 7.00

====

TARGET_OF_ASSAY: full length human TREX1 (Homo sapiens (Human), UniProt Q9NSU2)
Sequence (Q9NSU2 whole entry): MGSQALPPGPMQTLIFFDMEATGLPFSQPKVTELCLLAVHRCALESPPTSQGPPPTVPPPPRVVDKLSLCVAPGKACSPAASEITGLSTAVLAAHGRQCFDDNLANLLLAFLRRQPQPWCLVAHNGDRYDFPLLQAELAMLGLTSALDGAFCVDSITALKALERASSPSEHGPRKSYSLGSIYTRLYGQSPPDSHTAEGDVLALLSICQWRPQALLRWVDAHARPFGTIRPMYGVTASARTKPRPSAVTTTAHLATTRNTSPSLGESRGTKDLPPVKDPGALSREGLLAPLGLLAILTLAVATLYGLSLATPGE
TEST: TREX1 Biochemical Assay (fluorescence assay measuring degradation of dsDNA substrate)
TEST_CONDITIONS: 150 pM TREX1, 60 nM dsDNA substrate, 25 minutes at room temperature
pIC50: −log10 of the molar value.
Measured pIC50, listed per entry for reference.

Some entries whose results are on file:
COMPOUND: Cn1c(-c2ccccc2-c2ccncc2)nc(C(=O)Nc2cnoc2)c(O)c1=O [Example 67]
pIC50: 5.00 to 6.00

COMPOUND: Cc1cc(Nc2cnn(C)c2)cc(-c2nc(C(=O)Nc3cnoc3)c(O)c(=O)n2C)c1 [Example 32]
pIC50: 6.00 to 7.00

COMPOUND: Cc1cc(Br)cc(-c2nc(C(=O)Nc3cnoc3)c(O)c(=O)n2C)c1 [Example 1]
pIC50: > 7.00

COMPOUND: Cn1c(-c2cccnc2)nc(C(=O)Nc2cnoc2)c(O)c1=O [Example 29]
pIC50: 5.00 to 6.00

COMPOUND: Cn1c(C2CCCN(C(=O)C3CCC(=O)NC3)C2)nc(C(=O)Nc2cnoc2)c(O)c1=O (stereo not drawn) [Example 56]
pIC50: 6.00 to 7.00

COMPOUND: Cc1cc(C)cc(-c2nc(C(=O)Nc3cnoc3)c(O)c(=O)n2C)c1 [Example 25]
pIC50: 6.00 to 7.00

COMPOUND: Cc1cc(C(=O)O)cc(-c2nc(C(=O)Nc3cnoc3)c(O)c(=O)n2C)c1 [Example 51]
pIC50: 6.00 to 7.00

COMPOUND: Cn1c(C2CCN2C(=O)OC(C)(C)C)nc(C(=O)Nc2cnoc2)c(O)c1=O (stereo not drawn) [Example 22]
pIC50: 5.00 to 6.00

Note pIC50 for the compound shown: CC(=O)N1CCCN(c2nc(C(=O)Nc3cnoc3)c(O)c(=O)n2C)CC1 [Example 111] 6.00 to 7.00
